molecular target: Vasopressin V1a receptor (Homo sapiens, UniProt P37288); experiment: Displacement of [3H]-AVP from human vasopressin V1a receptor expressed in CHO cells after 30 mins; format: cell-based
Sequence (P37288 whole entry): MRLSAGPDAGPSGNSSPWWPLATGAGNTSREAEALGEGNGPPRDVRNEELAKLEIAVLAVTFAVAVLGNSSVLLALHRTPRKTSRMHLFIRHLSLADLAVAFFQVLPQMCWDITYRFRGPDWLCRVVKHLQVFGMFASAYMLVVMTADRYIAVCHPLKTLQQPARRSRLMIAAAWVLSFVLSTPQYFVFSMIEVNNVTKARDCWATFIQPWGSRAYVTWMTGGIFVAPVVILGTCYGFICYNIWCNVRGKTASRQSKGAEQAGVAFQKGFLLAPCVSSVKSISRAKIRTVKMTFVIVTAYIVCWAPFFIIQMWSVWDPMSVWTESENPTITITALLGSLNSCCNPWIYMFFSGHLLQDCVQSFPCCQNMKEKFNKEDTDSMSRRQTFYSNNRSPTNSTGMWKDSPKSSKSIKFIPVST
Ki: recorded values
A number alone suffices; assume nM.

CCN1/C(=C/C=C/C=C/C2=[N+](CC)c3ccc(S(=O)(=O)[O-])cc3C2(C)C)C(C)(CCCC(=O)NCCn2cc(CNC(=O)CCC(=O)NC3CCCN(C(=O)c4ccc(NC(=O)c5ccccc5-c5ccccc5)cc4)c4ccccc43)nn2)c2cc(S(=O)(=O)O)ccc21 (centres undefined) = 621

// below: Ki requested for another molecule
What does the data say about its Ki? Entry: CCN1/C(=C/C=C/C=C/C2=[N+](CC)c3ccc(S(=O)(=O)[O-])cc3C2(C)C)C(C)(CCCC(=O)NCCOCCOCCOCCn2cc(CNC(=O)CCC(=O)NC3CCCN(C(=O)c4ccc(NC(=O)c5ccccc5-c5ccccc5)cc4)c4ccccc43)nn2)c2cc(S(=O)(=O)O)ccc21 (centres undefined)
1750
